Tested on: human plasma
Experiment: determination of in-vitro anticoagulant effect in human plasma (APTT)
Format: biochemical
Details: 10 µM; healthy human plasma, 37°C for 3 min
Protocol: After centrifugation, the plasma sample was pipetted and frozen (-80°C) for later use. […]
Record form. Attribute: APTT prolongation rate (%). Fill in for each entry.
Write down the numeric answer in % and omit the unit.

# input I am curious: what APTT prolongation rate (%) value has been reported for [2H]C([2H])([2H])Oc1cn([C@@H](CC)C(=O)Nc2ccc(C(N)=O)c(Cl)c2)c(=O)cc1-c1cc(Cl)ccc1-n1cc(C(F)(F)F)nn1 ?
# output 105.9

# input // query APTT prolongation rate (%) value for entry CC[C@@H](C(=O)Nc1c(Cl)cc(C(N)=O)cc1Cl)n1cc(OC)c(-c2cc(Cl)ccc2-n2cc(C(F)(F)F)nn2)cc1=O
# output 51.1

# input Fill blank: measured APTT prolongation rate (%) of the compound CC[C@@H](C(=O)Nc1ccc(C(N)=O)c(OC)c1)n1cc(OC)c(-c2cc(Cl)ccc2-n2cc(C(F)(F)F)nn2)cc1=O is ____.
# output 125.8

###

Assay: Effect of continuous in-vivo administration on general condition and food intake of rats
Conditions: 500 mg/kg PO once a day for 14 days, within 24 hours after the last administration
Measured property: Food intake (g, mean±SD) (g)
State just the number; it will be interpreted in g.

# input Returns the measured Food intake (g, mean±SD) for the input molecule. Input: [2H]C([2H])([2H])NC(=O)c1ccc(NC(=O)[C@H](CC)n2cc(OC)c(-c3cc(Cl)ccc3-n3cc(C(F)(F)F)nn3)cc2=O)cc1F
# output 26.49

# input Dear colleague, I am looking for the recorded Food intake (g, mean±SD) of the following molecule: [2H]C([2H])([2H])Oc1cn([C@@H](CC)C(=O)Nc2ccc(C(=O)NC)c(F)c2)c(=O)cc1-c1cc(Cl)ccc1-n1cc(C(F)(F)F)nn1
# output 27.00

# input I have this molecule here, CC[C@@H](C(=O)Nc1ccc(C(=O)O)c(Cl)c1)n1cc(OC)c(-c2cc(Cl)ccc2-n2cc(C(F)(F)F)nn2)cc1=O , and I need its recorded Food intake (g, mean±SD).
# output 27.22

# input Item under review: [2H]C([2H])([2H])NC(=O)c1ccc(NC(=O)[C@H](CC)n2cc(OC([2H])([2H])[2H])c(-c3cc(Cl)ccc3-n3cc(C(F)(F)F)nn3)cc2=O)cc1F . Reported Food intake (g, mean±SD)?
# output 27.08

# input Endpoint output: Food intake (g, mean±SD) of CC[C@@H](C(=O)Nc1ccc(C(N)=O)c(F)c1)n1cc(OC)c(-c2cc(Cl)ccc2-n2cc(C(F)(F)F)nn2)cc1=O [Comparative example 1, reference compound] . Value?
# output 24.98

# input # query: Food intake (g, mean±SD) of entry [2H]C([2H])([2H])Oc1cn([C@@H](CC)C(=O)Nc2ccc(C(N)=O)c(F)c2)c(=O)cc1-c1cc(Cl)ccc1-n1cc(C(F)(F)F)nn1
# output 27.08

###

Test: Study of pharmacokinetics in rats
Format: in vivo
Conditions: rat, po; male SD rats, intragastrical gavage, 30 mg/kg, plasma
Cut-off 20000 ng/mL on Cmax, inclusive. At or above means satisfied; below means not satisfied.

# input hey, is Cmax for this one >= 20000 ng/mL? CC[C@@H](C(=O)Nc1ccc(C(=O)O)c(OC)c1)n1cc(OC)c(-c2cc(Cl)ccc2-n2cc(C(F)(F)F)nn2)cc1=O
# output not satisfied

# input Decide: is the reported value of Cmax for [2H]C([2H])([2H])NC(=O)c1ccc(NC(=O)[C@H](CC)n2cc(OC)c(-c3cc(Cl)ccc3-n3cc(C(F)(F)F)nn3)cc2=O)cc1F equal to or greater than 20000 ng/mL?
# output satisfied

# input Kindly determine if Cmax recorded for CC[C@@H](C(=O)Nc1ccc(C(=O)O)c(Cl)c1)n1cc(OC)c(-c2cc(Cl)ccc2-n2cc(C(F)(F)F)nn2)cc1=O is above or exactly 20000 ng/mL.
# output not satisfied

# input Is Cmax for [2H]C([2H])([2H])NC(=O)c1ccc(NC(=O)[C@H](CC)n2cc(OC([2H])([2H])[2H])c(-c3cc(Cl)ccc3-n3cc(C(F)(F)F)nn3)cc2=O)cc1F at or above 20000 ng/mL?
# output satisfied

# input Please indicate if the recorded Cmax for [2H]C([2H])([2H])Oc1cn([C@@H](CC)C(=O)Nc2ccc(C(=O)NC)c(F)c2)c(=O)cc1-c1cc(Cl)ccc1-n1cc(C(F)(F)F)nn1 meets or exceeds 20000 ng/mL.
# output satisfied

Reference source: patent EP4640678A1
